Target: Alpha-1A adrenergic receptor (Homo sapiens, UniProt P35348)
Sequence (P35348 whole entry): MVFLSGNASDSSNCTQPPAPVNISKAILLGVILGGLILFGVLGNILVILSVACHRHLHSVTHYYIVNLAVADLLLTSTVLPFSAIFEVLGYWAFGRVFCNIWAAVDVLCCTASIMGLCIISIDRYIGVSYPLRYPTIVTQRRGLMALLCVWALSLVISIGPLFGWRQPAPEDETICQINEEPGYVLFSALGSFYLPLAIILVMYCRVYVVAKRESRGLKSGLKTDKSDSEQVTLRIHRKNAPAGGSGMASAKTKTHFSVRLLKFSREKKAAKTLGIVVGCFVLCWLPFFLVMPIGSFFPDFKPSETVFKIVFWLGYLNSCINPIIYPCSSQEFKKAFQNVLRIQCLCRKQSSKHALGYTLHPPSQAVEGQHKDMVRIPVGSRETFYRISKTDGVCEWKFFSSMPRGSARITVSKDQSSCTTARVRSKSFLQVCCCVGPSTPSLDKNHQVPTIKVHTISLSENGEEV
Assay: Displacement of [3H]prazosin from human cloned alpha1A adrenoceptor expressed in CHO cells
Type: cell-based
Kindly supply the reported pKi values for the records listed here.
One number for each entry, as −log10 of the molar value.

Answered cases to consult:
| compound | pKi |
| --- | --- |
| COc1cccc(OC)c1OCCNC[C@@H]1COC[C@H](c2ccccc2)O1 (relative stereo) | 6.33 |
| COc1ccccc1OCCNC[C@@H]1COC[C@H](c2ccccc2)O1 (relative stereo) | 6.70 |

List reported pKi for each of these compounds:
1. COc1ccccc1OCCNC[C@@H]1COC[C@@H](c2ccccc2)O1 (relative stereo)
2. COc1cccc(OC)c1OCCNC[C@@H]1COCC(c2ccccc2)(c2ccccc2)O1

1: 7.06; 2: 6.47

---

Kindly supply the reported log10(TGI) values for the records listed here.
Tested on: PC-3
Assay: Cytotoxicity against human PC3 cells after 48 hrs by SRB assay
Type: functional
Settings: PC-3, 48 h
All values: base-10 log of TGI in µM.

| compound | recorded-number |
| --- | --- |
| COc1cc2nc(N3CCN(C(=O)C4COc5ccccc5O4)CC3)nc(N)c2cc1OC (stereo not given) | 1.69 |

List reported log10(TGI) for each of these compounds:
1. c1ccc(OCCNC[C@@H]2COCC(c3ccccc3)(c3ccccc3)O2)cc1
2. c1ccc(OCCNC[C@@H]2CO[C@@H](c3ccccc3)CO2)cc1 (relative stereo)
3. COc1cccc(OC)c1OCCNCC1COc2ccccc2O1 (stereo not given)
4. COc1ccccc1OCCNC[C@@H]1COC[C@H](c2ccccc2)O1 (relative stereo)

0.59
2.40
2.30
2.20

---

Target: Alpha-1A adrenergic receptor (Rattus norvegicus)
Assay: Antagonist activity at alpha1A adrenoceptor in Wistar rat prostatic vas deferens assessed as inhibition of (-)-noradrenaline-induced contraction after 30 mins
Assay type: functional, tissue-based
Kindly supply the reported pKb values for the records listed here.

Answered cases to consult:
| compound | target-under-test | pKb |
| --- | --- | --- |
| COc1ccccc1OCCNC[C@@H]1COC[C@H](c2ccccc2)O1 (relative stereo) | Alpha-1A adrenergic receptor (Rattus norvegicus) | 6.57 |
| COc1cccc(OC)c1OCCNC[C@@H]1CO[C@@H](c2ccccc2)CO1 (relative stereo) | Alpha-1A adrenergic receptor (Rattus norvegicus) | 7.21 |
| COc1cccc(OC)c1OCCNC[C@@H]1COC(c2ccccc2)(c2ccccc2)CO1 | Alpha-1A adrenergic receptor (Rattus norvegicus) | 6.08 |
| COc1ccccc1OCCNC[C@@H]1CO[C@H](c2ccccc2)CO1 (relative stereo) | Alpha-1A adrenergic receptor (Rattus norvegicus) | 6.47 |
| c1ccc(OCCNC[C@@H]2COCC(c3ccccc3)(c3ccccc3)O2)cc1 | Alpha-1A adrenergic receptor (Rattus norvegicus) | 6.93 |
| COc1cccc(OC)c1OCCNC[C@@H]1COCC(c2ccccc2)(c2ccccc2)O1 | Alpha-1A adrenergic receptor (Rattus norvegicus) | 6.71 |
| c1ccc(OCCNC[C@@H]2CO[C@H](c3ccccc3)CO2)cc1 (relative stereo) | Alpha-1A adrenergic receptor (Rattus norvegicus) | 6.89 |
| c1ccc(OCCNC[C@@H]2COC[C@H](c3ccccc3)O2)cc1 (relative stereo) | Alpha-1A adrenergic receptor (Rattus norvegicus) | 6.72 |

List reported pKb for each of these compounds:
1. COc1cccc(OC)c1OCCNC[C@@H]1COC[C@H](c2ccccc2)O1 (relative stereo)
2. c1ccc(OCCNC[C@@H]2CO[C@@H](c3ccccc3)CO2)cc1 (relative stereo)

6.42
7

---

Molecular target: Alpha-1A adrenergic receptor (Rattus norvegicus) (UniProt P43140)
Sequence (P43140 whole entry): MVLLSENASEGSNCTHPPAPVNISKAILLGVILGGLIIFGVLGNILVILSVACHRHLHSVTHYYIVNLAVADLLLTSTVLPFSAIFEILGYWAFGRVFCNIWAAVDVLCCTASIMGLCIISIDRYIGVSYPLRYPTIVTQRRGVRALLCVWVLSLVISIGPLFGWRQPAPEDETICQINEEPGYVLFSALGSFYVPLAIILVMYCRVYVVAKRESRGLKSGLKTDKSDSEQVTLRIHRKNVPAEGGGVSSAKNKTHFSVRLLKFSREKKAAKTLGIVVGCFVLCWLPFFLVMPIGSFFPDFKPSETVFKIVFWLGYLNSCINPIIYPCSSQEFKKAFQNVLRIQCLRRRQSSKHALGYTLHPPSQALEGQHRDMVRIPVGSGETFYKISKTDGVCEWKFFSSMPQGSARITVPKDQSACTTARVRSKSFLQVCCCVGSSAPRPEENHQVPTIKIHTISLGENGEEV
Test: Antagonist activity at alpha1A adrenoceptor in Wistar rat prostatic vas deferens assessed as inhibition of (-)-noradrenaline-induced contraction after 30 mins
Format: functional, tissue-based
Kindly supply the reported pKb values for the records listed here.
Numbers only.

Answered cases to consult:
| compound | target-under-test | readout-name | recorded-number |
| --- | --- | --- | --- |
| c1ccc(OCCNC[C@@H]2COC(c3ccccc3)(c3ccccc3)CO2)cc1 | Alpha-1A adrenergic receptor (Rattus norvegicus) (UniProt P43140) | pKb | 6.15 |
| COc1ccccc1OCCNC[C@@H]1COC[C@@H](c2ccccc2)O1 (relative stereo) | Alpha-1A adrenergic receptor (Rattus norvegicus) (UniProt P43140) | pKb | 7.22 |
| COc1cccc(OC)c1OCCNC[C@@H]1COC[C@@H](c2ccccc2)O1 (relative stereo) | Alpha-1A adrenergic receptor (Rattus norvegicus) (UniProt P43140) | pKb | 5.8 |
| COc1cccc(OC)c1OCCNC[C@@H]1CO[C@H](c2ccccc2)CO1 (relative stereo) | Alpha-1A adrenergic receptor (Rattus norvegicus) (UniProt P43140) | pKb | 5.96 |
| c1ccc(OCCNC[C@@H]2COC[C@@H](c3ccccc3)O2)cc1 (relative stereo) | Alpha-1A adrenergic receptor (Rattus norvegicus) (UniProt P43140) | pKb | 7.21 |

List reported pKb for each of these compounds:
1. COc1ccccc1OCCNC[C@@H]1COC(c2ccccc2)(c2ccccc2)CO1
2. COc1ccccc1OCCNC[C@@H]1CO[C@@H](c2ccccc2)CO1 (relative stereo)
3. COc1ccccc1OCCNC[C@@H]1COCC(c2ccccc2)(c2ccccc2)O1
4. COc1cccc(OC)c1OCCNCC1COc2ccccc2O1 (centres undefined)

[6.37, 7.1, 6.65, 9.51]

---

Tested on: PC-3
Experiment: Cytotoxicity against human PC3 cells after 48 hrs by SRB assay
Assay type: functional
Details: PC-3, 48 h
Flag rule - TGI less than 30 µM flags yes; the remaining entries get no.

Some entries whose results are on file:
| compound | target-under-test | classification |
| --- | --- | --- |
| c1ccc(OCCNC[C@@H]2COC[C@H](c3ccccc3)O2)cc1 (relative stereo) | PC-3 | no |
| COc1ccccc1OCCNC[C@@H]1COCC(c2ccccc2)(c2ccccc2)O1 | PC-3 | yes |

TGI strictly < 30 µM for this compound? COc1cccc(OC)c1OCCNC[C@@H]1CO[C@H](c2ccccc2)CO1 (relative stereo)
no

TGI strictly < 30 µM for this compound? COc1ccccc1OCCNC[C@@H]1CO[C@H](c2ccccc2)CO1 (relative stereo)
no

TGI strictly < 30 µM for this compound? "COc1cccc(OC)c1OCCNC[C@@H]1COC(c2ccccc2)(c2ccccc2)CO1"
no

TGI strictly < 30 µM for this compound? COc1cccc(OC)c1OCCNC[C@@H]1COC[C@@H](c2ccccc2)O1 (relative stereo)
no

---

Kindly supply the reported pKb values for the records listed here.
Molecular target: Alpha-1B adrenergic receptor (Rattus norvegicus)
Sequence (whole entry): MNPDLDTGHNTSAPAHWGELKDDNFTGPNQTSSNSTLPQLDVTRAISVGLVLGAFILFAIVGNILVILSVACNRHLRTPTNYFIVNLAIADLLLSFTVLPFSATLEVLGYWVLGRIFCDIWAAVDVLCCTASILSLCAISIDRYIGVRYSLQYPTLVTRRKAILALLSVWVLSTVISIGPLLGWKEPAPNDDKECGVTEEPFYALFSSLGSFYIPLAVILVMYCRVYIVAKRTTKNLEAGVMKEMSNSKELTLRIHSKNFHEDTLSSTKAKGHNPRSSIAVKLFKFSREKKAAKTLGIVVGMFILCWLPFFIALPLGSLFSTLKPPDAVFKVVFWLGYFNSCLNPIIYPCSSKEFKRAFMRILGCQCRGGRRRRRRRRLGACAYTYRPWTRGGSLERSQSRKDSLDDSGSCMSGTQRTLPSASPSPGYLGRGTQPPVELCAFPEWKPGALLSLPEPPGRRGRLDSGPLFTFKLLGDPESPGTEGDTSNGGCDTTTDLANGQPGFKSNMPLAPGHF
Assay: Antagonist activity at alpha1B adrenoceptor in Wistar rat spleen assessed as inhibition of (-)-phenylephrine-induced contraction after 30 mins
Type: functional, tissue-based
One number for each entry.

Answered cases to consult:
| compound | pKb |
| --- | --- |
| COc1ccccc1N1CCN(CCN2C(=O)CC3(CCCC3)CC2=O)CC1 | 7.48 |
| COc1ccccc1OCCNC[C@@H]1CO[C@H](c2ccccc2)CO1 (relative stereo) | 6.89 |
| COc1cccc(OC)c1OCCNC[C@@H]1COC(c2ccccc2)(c2ccccc2)CO1 | 5.74 |
| c1ccc(OCCNC[C@@H]2COC[C@@H](c3ccccc3)O2)cc1 (relative stereo) | 6.88 |
| c1ccc(OCCNC[C@@H]2CO[C@@H](c3ccccc3)CO2)cc1 (relative stereo) | 6.97 |
| c1ccc(OCCNC[C@@H]2COC(c3ccccc3)(c3ccccc3)CO2)cc1 | 6.28 |
| COc1ccccc1OCCNC[C@@H]1COC(c2ccccc2)(c2ccccc2)CO1 | 6.81 |
| c1ccc(OCCNC[C@@H]2CO[C@H](c3ccccc3)CO2)cc1 (relative stereo) | 6.68 |

List reported pKb for each of these compounds:
1. COc1cccc(OC)c1OCCNC[C@@H]1CO[C@@H](c2ccccc2)CO1 (relative stereo)
2. COc1ccccc1OCCNC[C@@H]1CO[C@@H](c2ccccc2)CO1 (relative stereo)
3. COc1cccc(OC)c1OCCNC[C@@H]1COCC(c2ccccc2)(c2ccccc2)O1

1: 7.02; 2: 7.44; 3: 6.24
